Measured values drawn from paper PMC9911399 for this set.

Biological target: T1, RBFOX1 RRM RbFoxmut (Fox-RRM*) (Homo sapiens, UniProt Q9NWB1 109-208, R118D;E147R;N151S;E152T)
T1 sequence: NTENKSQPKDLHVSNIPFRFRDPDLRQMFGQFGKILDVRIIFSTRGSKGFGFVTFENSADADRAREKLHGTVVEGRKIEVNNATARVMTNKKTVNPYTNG
Experiment: EMSA; HiTS-Eq, 1 nM pool, 10 min; buffer printed only for the single-RNA assays: 10 mM Tris pH 7.5, 150 mM NaCl, 3.4 mM EDTA, 0.001% NP-40, 30 C
Settings: tags: His6 N-terminal (pET28a); label: 5' 32P
Whole data set: some 16,000 sequences, median “ka relative to ugcaugu” near 0.096, cut for the highest 2% near 0.35. This excerpt belongs to a sample that is enriched for the highest values.
property_name: binding signal

binder | property_name | result
CCGUAUG (DNA:RNA) RNA: GGGAGACCGGAAUUCAGAUUGUCCCCGUAUGUUAAAUCCCGUCGUAGCCACCA DNA 1: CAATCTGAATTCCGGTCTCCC DNA 2: TGGTGGCTACGACGGGATT | binding signal | 0.534 KA relative to UGCAUGU
UAGUAUG (DNA:RNA) RNA: GGGAGACCGGAAUUCAGAUUGUCCUAGUAUGUUAAAUCCCGUCGUAGCCACCA DNA 1: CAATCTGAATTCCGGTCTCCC DNA 2: TGGTGGCTACGACGGGATT | binding signal | 0.674 KA relative to UGCAUGU
GUUAUGU (DNA:RNA) RNA: GGGAGACCGGAAUUCAGAUUGUCCGUUAUGUUUAAAUCCCGUCGUAGCCACCA DNA 1: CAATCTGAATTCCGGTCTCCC DNA 2: TGGTGGCTACGACGGGATT | binding signal | 0.268 KA relative to UGCAUGU
GUAUGUU (DNA:RNA) RNA: GGGAGACCGGAAUUCAGAUUGUCCGUAUGUUUUAAAUCCCGUCGUAGCCACCA DNA 1: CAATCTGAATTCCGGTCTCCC DNA 2: TGGTGGCTACGACGGGATT | binding signal | 0.497 KA relative to UGCAUGU
